Target: G-protein coupled bile acid receptor 1 (Mus musculus)
Sequence (Q80SS6 whole entry): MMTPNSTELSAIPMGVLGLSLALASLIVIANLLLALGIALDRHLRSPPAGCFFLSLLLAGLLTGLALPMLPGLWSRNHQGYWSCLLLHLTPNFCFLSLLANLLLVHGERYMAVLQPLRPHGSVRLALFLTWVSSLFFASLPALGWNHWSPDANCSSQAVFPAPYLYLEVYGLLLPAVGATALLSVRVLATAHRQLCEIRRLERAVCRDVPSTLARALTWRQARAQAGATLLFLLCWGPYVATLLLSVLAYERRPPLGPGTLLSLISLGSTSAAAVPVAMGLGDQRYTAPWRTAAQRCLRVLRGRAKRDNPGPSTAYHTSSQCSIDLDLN
Test: Agonist activity at mouse TGR5 receptor expressed in HEK293 cells cotransfected with pCMV AC6-TGR5 assessed as activation of intracellular cAMP production incubated overnight by luciferase reporter gene assay
Format: functional, cell-based
Settings: read-out: EC50
ASSAY READOUT: EC50 (nM)

These solved cases illustrate the format of a correct answer.
- COCCN1C(=O)CC(c2ccc(Cl)cc2)C(C(=O)OCc2cccc(C(F)(F)F)c2)=C1C (stereo unspecified): 800
- COCCN1C(=O)CC(c2ccc(Cl)cc2)C(C(=O)OCc2ccc(OC)cc2)=C1C (stereo unspecified): 300
- COCCN1C(=O)CC(c2ccc(Cl)cc2)C(C(=O)OCc2ccccc2F)=C1C (stereo unspecified): 600
- COc1ccccc1COC(=O)C1=C(C)N(CCO)C(=O)CC1c1ccc(Cl)cc1 (stereo unspecified): 770

(a) CC1=C(C(=O)OCc2ccccc2)C(c2ccc(Cl)cc2)CC(=O)N1CC1CCC1 (stereo unspecified)
(b) COCCN1C(=O)CC(c2ccc(Cl)cc2)C(C(=O)OCc2cccc(C(=O)OC)c2)=C1C (stereo unspecified)
Exercise: Which shows the larger EC50 value: a or b ? Write the label of whichever entry you select.
Key: b
(b: 800 nM, a: 300 nM)
